Listing: max response of selected compounds
- protocol_text: qHTS Assay for Lipid Storage Modulators (AID 1519)
- recorded_conditions: Drosophila S3 cells, BODIPY lipid droplet/cell ratio, laser cytometry; measured here: cell count channel max response; cells loaded with oleic acid
Inconclusive results are not listed.
assay_readout: max response (%)

[[record]]
compound = "NC(=NCCCC(N)C(=O)O)N[N+](=O)[O-] (stereo not given)"
assay_readout = "max response"
result = -5.56

[[record]]
compound = "CN1CCCCC1c1ccc(-c2cccnc2)nc1 (stereo not given)"
assay_readout = "max response"
result = 12.4

[[record]]
compound = "CC(=O)C1CCC2C3CCC4CC(O)CCC4(C)C3CC(O)C12C (stereo not given)"
assay_readout = "max response"
result = 3.25

[[record]]
compound = "CC(C)N(CC[C@@](C(N)=O)(c1ccccc1)c1ccccn1)C(C)C"
assay_readout = "max response"
result = -13.9

[[record]]
compound = "CN1CCN(c2ncc3ncc(=O)n(C)c3n2)CC1"
assay_readout = "max response"
result = -0.0774

[[record]]
compound = "c1cnc(N2CC[C@@]3(CCCNC3)C2)nc1"
assay_readout = "max response"
result = 20.5

[[record]]
compound = "COc1cc2c(cc1OC)[C@@]13CCN4CC5=CCOC6CC(=O)N2C1[C@H]6[C@@H]5C[C@@H]43 (stereo not given in full)"
assay_readout = "max response"
result = 9.29

[[record]]
compound = "CCC(C)C1O[C@]2(C=CC1C)CC1CC(C/C=C(\\C)[C@H](OC3CC(OC)C(O[C@H]4CC(OC)[C@@H](O)C(C)O4)C(C)O3)[C@@H](C)/C=C/C=C3\\COC4C(O)C(C)=C[C@H](C(=O)O1)[C@@]34O)O2 (stereo not given in full)"
assay_readout = "max response"
result = -1.86

[[record]]
compound = "NC(=O)c1ccc(N)nc1"
assay_readout = "max response"
result = 16.6

[[record]]
compound = "CCCN1CCc2cccc3c2C1Cc1ccc(O)c(O)c1-3 (stereo not given)"
assay_readout = "max response"
result = -26.8


====

- protocol_text: qHTS Assay for Lipid Storage Modulators (AID 1519)
- recorded_conditions: Drosophila S3 cells, BODIPY lipid droplet/cell ratio, laser cytometry; measured here: lipid channel max response; cells loaded with oleic acid
Results filed as inconclusive are left out.
Decision: max response compared against 20%; not below it gives yes (1), below it gives no (0).

[[record]]
molecule = "O=C(Nc1ccccc1)N1CC[C@@]2(CCCN(C(=O)Oc3ccccc3)C2)C1"
qualitative_label = "yes (1)"

[[record]]
molecule = "C[C@@]12CCC3C(CC[C@@H]4CC(O)CC[C@@]34C)C1CCC2O (some centres not stated)"
qualitative_label = "yes (1)"

[[record]]
molecule = "O=C1CCCC2C3CC(CN12)C1CCCCN1C3 (configuration not stated)"
qualitative_label = "no (0)"

[[record]]
molecule = "O=C(O)COc1ccc(Cl)cc1Cl"
qualitative_label = "no (0)"

[[record]]
molecule = "N#C/C(=C\\c1ccc(O)cc1)C(=O)O"
qualitative_label = "no (0)"

[[record]]
molecule = "C=C1CC[C@H](O)C/C1=C/C=C1\\CCC[C@]2(C)[C@H]1CC[C@H]2[C@@H](C)CCCC(C)C"
qualitative_label = "no (0)"

[[record]]
molecule = "CC(C)NC(=O)N1CCC2(CCNCC2)CC1"
qualitative_label = "no (0)"

[[record]]
molecule = "CNC(=O)Oc1cccc2c1OC(C)(C)O2"
qualitative_label = "yes (1)"

[[record]]
molecule = "CCCC[N+]1(C)C2CC(OC(=O)C(CO)c3ccccc3)CC1C1OC12 (configuration not stated)"
qualitative_label = "no (0)"

[[record]]
molecule = "CC1Cc2cc3c(cc2C(c2ccc(N)cc2)=NN1)OCO3 (configuration not stated)"
qualitative_label = "yes (1)"

[[record]]
molecule = "COc1cc(C2c3cc4c(c(O)c3CC3COC(=O)C32)OCO4)cc(OC)c1OC (configuration not stated)"
qualitative_label = "no (0)"

[[record]]
molecule = "c1csc(CN2CC3(CCNCC3)C2)n1"
qualitative_label = "yes (1)"

